Every entry's value here was drawn from ChEMBL document CHEMBL4296182.

Quick reference for Inhibition among some molecules
tested on: Cryptococcus neoformans; details: Concentration 20 uM; ASSAY_TEST Inhibition of Fungal Growth; detection method Resazurin; Absorption (OD600-OD570); plate type 384well; NBS; CORNING #3640
Description: Antifungal activity against Cryptococcus neoformans H99 ATCC 208821 (CO-ADD:FG_002); MIC in YNB media using NBS plates, by Resazurin OD(600-570)
Entries with a potency or affinity are not part of this list.
Report as a plain number; the unit % is understood.

Solved cases (3 shown):
[[record]]
molecule = "COc1ccc(/C(C#N)=C/c2cccnc2)cc1"
readout = "Inhibition"
quantitative_result = -16.52

[[record]]
molecule = "CC1=C(c2ccccc2)C=NNCC1=O"
readout = "Inhibition"
quantitative_result = -8.22

[[record]]
molecule = "Clc1nc(Oc2ccccc2)nc(-c2cn(-c3ccccc3)c3ccccc23)n1"
readout = "Inhibition"
quantitative_result = -13


Now let's try a different one.
Q. Please report the recorded Inhibition for CC(=O)n1cc(C2CC(=O)OC3=C2CC(=O)C(C)(C)C3)c2ccccc21 (configuration not stated) .
A. -0.61
